molecular target: N-His-Tb-BIR3 (241-356, XIAP) (Homo sapiens (Human)); assay: biochemical; assay type: binding; details: fluoresceinated modified SMAC peptide, fluorescence polarization; read-out: XIAP BIR3 FPA IC50

COMPOUND	SYSTEM_UNDER_TEST	IC50
CN[C@@H](C)C(=O)N[C@H](C(=O)[C@@H]1C[C@H](NC(=O)[C@@H](CCC(F)(F)F)[C@@H](CCC(F)(F)F)C(=O)Nc2ccc3c(c2)CN(C(=O)[C@@H](NC(=O)[C@H](C)NC)C(C)(C)C)[C@H](C(=O)N[C@@H]2CCCc4ccccc42)C3)CN1C(=O)N[C@@H]1CCCc2ccccc21)C(C)(C)C	N-His-Tb-BIR3 (241-356, XIAP) (Homo sapiens (Human))	110 nM
CN[C@@H](C)C(=O)N[C@H](C(=O)N1Cc2ccc(OCc3ccc(C(=O)N[C@H]4C[C@@H](C(=O)NC5CCCc6ccccc65)N(C(=O)[C@@H](NC(=O)[C@H](C)NC)C(C)(C)C)C4)cc3)cc2C[C@@H]1C(=O)NC1CCCc2ccccc21)C(C)(C)C (stereo partly shown)	N-His-Tb-BIR3 (241-356, XIAP) (Homo sapiens (Human))	240 nM
CC[C@H](NC)C(=O)N[C@H](C(=O)N1Cc2cc(NC(=O)c3ccc(C(=O)N[C@H]4C[C@@H](C(=O)N[C@@H]5CCCc6ccccc65)N(C(=O)[C@@H](NC(=O)[C@H](C)NC)C(C)(C)C)C4)cc3)ccc2C[C@H]1C(=O)N[C@@H]1CCCc2ccccc21)C(C)(C)C	N-His-Tb-BIR3 (241-356, XIAP) (Homo sapiens (Human))	110 nM
CN[C@@H](C)C(=O)N[C@H](C(=O)N1CC[C@@H](OCc2ccc(C(=O)N[C@H]3C[C@@H](C(=O)N[C@@H]4CCCc5ccccc54)N(C(=O)[C@@H](NC(=O)[C@H](C)NC)C(C)(C)C)C3)cc2)C[C@H]1C(=O)N[C@@H]1CCCc2ccccc21)C(C)(C)C	N-His-Tb-BIR3 (241-356, XIAP) (Homo sapiens (Human))	38 nM
